protocol-summary: plasma levels of indoprofen in mice after oral gavage (HPLC-UV)
Type: in vivo
conditions-used: mouse, plasma, oral suspension, 16 hours, mean and standard error, read-out: Plasma Level of Indoprofen
assay-metric: concentration at 16 h (ng/mL)
Form entry: value (ng/mL) — number only.

Dear colleague, I am looking for the recorded concentration at 16 h of the following compound: CC(C(=O)O)c1ccc(N2Cc3ccccc3C2=O)cc1 (stereo not shown) [indoprofen]
490

* * *

protocol-summary: plasma levels of indoprofen in mice after oral gavage (HPLC-UV)
Format: in vivo
conditions-used: mouse, plasma, oral suspension, one compartment open model, read-out: Ke, apparent rate of elimination (converted)
assay-metric: k el (s⁻¹)
# value in s⁻¹; strip the unit string

I'd like to know its k el. The molecule in question is CC(C(=O)O)c1ccc(N2Cc3ccccc3C2=O)cc1 (stereo not shown) [indoprofen]
3.54e-05
